Recorded IC50 for molecules tested on RORc (Homo sapiens, UniProt P51449), drawn from a number of studies.
Value type: IC50 (nM)

The examples below pair each entry with its known result.
Molecule: CC1(C)[C@@H]2CC[C@@]1(C(=O)Nc1ccc(C#N)cn1)c1nnc(-c3ccccc3F)cc12
Tgt: RORc (Homo sapiens, UniProt P51449)
Value type: IC50
Result value: 848
--
Molecule: CC1(C)[C@H]2CC[C@]1(c1cncc(-c3cn[nH]n3)n1)c1nnc(-c3c(F)cccc3F)cc12
Tgt: RORc (Homo sapiens, UniProt P51449)
Value type: IC50
Result value: 6.4
--
Molecule: CC1(C)[C@H]2CC[C@]1(c1cc(=O)cc[nH]1)c1nnc(-c3c(F)cccc3F)cc12
Tgt: RORc (Homo sapiens, UniProt P51449)
Value type: IC50
Result value: 1940

(A) COCC12CCC(c3cc(-c4ccccc4F)nnc31)C21CC1 (centres unmarked)
(B) CC(C)(O)c1ncc(-c2cncc([C@@]34CC[C@@H](c5cc(-c6c(F)cccc6F)nnc53)C4(C)C)n2)cn1
(C) CC1(C)[C@H]2CC[C@]1(c1ccnc(-n3ccc(C(N)=O)n3)n1)c1nnc(-c3c(F)cccc3F)cc12
(D) Cc1n[nH]c(C)c1-c1ccc(CN(CC(C)C)S(=O)(=O)Cc2ccccc2)cc1
(E) Cc1cc(NC(=O)c2ccc(CN3[C@@H](C)CCC(c4ccccc4)S3(=O)=O)cc2)n[nH]1 (some centres unmarked)
Sort ascending by IC50. Output spec: a listing of the labels in the requested order.
B, C, A, E, D
(B: 9.1 nM, C: 34.3 nM, A: 350 nM, E: 1220 nM, D: 2800 nM)

(P) CC1(C)[C@H]2CC[C@]1(c1ccnc(NS(C)(=O)=O)n1)c1nnc(-c3c(F)cccc3F)cc12
(Q) C[C@H](O)Cn1ccc(-c2cncc([C@@]34CC[C@@H](c5cc(-c6c(F)cccc6F)nnc53)C4(C)C)n2)n1
(R) CC(=O)Nc1ccc(-c2cc3c(nn2)[C@@]2(C)CC[C@@H]3C2(C)C)cn1
Reorder: IC50, max to min. Output spec: a listing of the labels in the requested order.
R, P, Q
